Values were extracted from patent EP0540143B1.

Kindly state inhibition at 0.1 µg/mL for each of the entries shown.
- Test system: HIV-2
- assayMethodText: Test F (HIV-2 RT), RT activity in supernatant of infected MT-4/H9 cells
- Format: cell-based
- conditionInfo: Human immunodeficiency virus 2, H9, Test F; 0.1 µg/ml
Give bare numbers, in %.

Recorded inhibition at 0.1 µg/mL, per entry:
{"molecule": "FC(F)(F)c1csc(NC(=S)NCCc2ccccc2)n1", "inhibition at 0.1 µg/mL / %": 56}
{"molecule": "Fc1ccc2nc(NC(=S)NCCc3ccccc3)sc2c1", "inhibition at 0.1 µg/mL / %": 4}
{"molecule": "Cc1nc(NC(=S)NCCc2ccccc2)sc1C", "inhibition at 0.1 µg/mL / %": 1}

For each of the molecules below, state inhibition at 0.1 µg/mL.
1. S=C(NCCc1ccccc1)Nc1nc2c(Cl)cccc2s1
2. S=C(NCCc1ccccc1)Nc1nccs1 [the 1st table, row 1]
3. S=C(NCCc1ccccc1)Nc1nc2ccccc2s1

[1, 43, 1]

----------
- assaySystem: recombinant HIV-RT (Human immunodeficiency virus type 1 group M subtype B, UniProt P04585)
- assayMethodText: Test I (HIVRT (rAdt)), direct inhibition of recombinant HIV-RT
- Type: biochemical
- conditionInfo: 10 µg/ml
measure: inhibition at 10 µg/mL (%)
Numbers only, in %.

I would be grateful if you could provide inhibition at 10 µg/mL for each of the following entries.
1. S=C(NCCc1ccccc1)NCc1ccco1
2. Fc1ccc2nc(NC(=S)NCCc3ccccc3)sc2c1

1. 10
2. 39

----------
- assaySystem: recombinant HIV-RT (Human immunodeficiency virus type 1 group M subtype B, UniProt P04585)
- assayMethodText: Test I (HIVRT (rAdt)), direct inhibition of recombinant HIV-RT
- Format: biochemical
- conditionInfo: 1 µg/ml
Provide the reported inhibition at 1 µg/mL of each item.
Numbers only, in %.

Please review the following examples before continuing.
{"givenSmiles": "Cc1ccnc(NC(=S)NCCc2ccccc2)n1", "unitString": "%", "inhibition at 1 µg/mL": 15}
{"givenSmiles": "S=C(NCCc1ccccc1)NCc1ccco1", "unitString": "%", "inhibition at 1 µg/mL": 12}
{"givenSmiles": "FC(F)(F)c1csc(NC(=S)NCCc2ccccc2)n1", "unitString": "%", "inhibition at 1 µg/mL": 73}

Now, please, on to the next molecule.
Provide inhibition at 1 µg/mL value for the following molecule: `S=C(NCCc1ccccc1)Nc1nnc[nH]1`
14

----------
- assaySystem: recombinant HIV-RT (Human immunodeficiency virus type 1 group M subtype B, UniProt P04585)
- assayMethodText: Test I (HIVRT (rAdt)), direct inhibition of recombinant HIV-RT
- Type: biochemical
- conditionInfo: 1 µg/ml
- Description: The compounds were tested for direct inhibitory activity on HIV-RT in a volume of […] recombinant HIV-RT (diluted in virus disruption buffer to give 200.000 cpm). 100 mM Tris-HCl pH 7.6, 100 mM KCl, 4 mM MgCl2, 4 mM DTT, 275 mg/ml BSA, 0.5 mg (rA)n(dT)12-18 and 0.3 mM ^3H- dTTP (specific activity 18.000 cpm/mol). […] After rinsing the paper discs in ethanol they were dried and counted in scintillation fluid.
Kindly state inhibition at 1 µg/mL for each of the entries shown.
Give bare numbers, in %.

{"givenSmiles": "S=C(NCCc1ccccc1)Nc1ccccc1", "inhibition at 1 µg/mL (%)": 16}
{"givenSmiles": "CCCCCCCCCCCCCCc1sc(NC(=S)NCCc2ccccc2)nc1-c1ccc(Cl)cc1", "inhibition at 1 µg/mL (%)": 1}
{"givenSmiles": "S=C(NCCc1ccccc1)Nc1ccccc1Cl", "inhibition at 1 µg/mL (%)": 31}
{"givenSmiles": "CC(C)(C)c1csc(NC(=S)NCCc2ccccc2)n1", "inhibition at 1 µg/mL (%)": 8}
{"givenSmiles": "S=C(NCCc1ccccc1)Nc1nc2ccccc2s1", "inhibition at 1 µg/mL (%)": 36}

Please look at the items below and tell me inhibition at 1 µg/mL for each one, in order.
1. S=C(NCCc1ccccc1)Nc1nc2c(Cl)cccc2s1
2. COC(=O)C(=O)c1csc(NC(=S)NCCc2ccccc2)n1
3. Fc1cccc(Cl)c1CCNC(=S)Nc1nccs1
4. S=C(NCCc1ccccc1)Nc1ccc(Cl)cc1
5. Fc1ccc2nc(NC(=S)NCCc3ccccc3)sc2c1
6. N#Cc1csc(NC(=S)NCCc2ccccc2)n1

[6, 1, 77, 29, 38, 93]
